Test system: brain (striatum) of the rat
Experiment: Concentration of dopamine, its metabolites, 5-HT and 5-HIAA in the striatum of benserazide-pretreated rats
Format: in vivo
Conditions: 50 mg/kg L-DOPA or L-DOPA eq. ip, 30 min after benserazide; tissue 90 min later
Measured Attribute: 3-MT concentration in striatum (MV) (pg per mg striatum)

- Compound: "O=C(CCCCC1CCSS1)NC(Cc1ccc(O)c(O)c1)C(=O)O [compound 3, L-DOPA-(D,L)-lipoic acid amide]"
  Target Of Assay: "brain (striatum) of the rat"
  Reading: 237
- Compound: "CC(=O)Oc1ccc(C[C@H](N)C(=O)OCCOC(=O)CCCCC2CCSS2)cc1OC(C)=O (stereo partly shown)"
  Target Of Assay: "brain (striatum) of the rat"
  Reading: 194
- Compound: "CC(=O)Oc1ccc(CC(NC(=O)CCCCC2CCSS2)C(=O)O)cc1OC(C)=O (stereo not shown)"
  Target Of Assay: "brain (striatum) of the rat"
  Reading: 176
- Compound: "NC(Cc1ccc(O)c(O)c1)C(=O)O [L-DOPA, reference compound]"
  Target Of Assay: "brain (striatum) of the rat"
  Reading: 259
